Biological target: T1, Human CD137 ECD (human)
T1 construct: also called 4-1BB
T1 sequence (chain, as listed by the source limits assumed): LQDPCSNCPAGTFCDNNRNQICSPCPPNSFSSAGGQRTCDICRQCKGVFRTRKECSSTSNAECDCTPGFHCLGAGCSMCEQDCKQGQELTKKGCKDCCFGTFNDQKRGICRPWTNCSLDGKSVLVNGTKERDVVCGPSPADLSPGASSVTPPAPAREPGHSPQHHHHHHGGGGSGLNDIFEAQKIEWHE
Test: single mutant vs template dBBDu183H
Entries and their fold change of affinity
EXPERIMENTAL ENDPOINT: fold change of affinity (fold)

binder="H183/L072 VH Y58Q (antibody, name in Kabat numbering, V domains shown) VH: QVQLVESGGGLVQPGRSLRLSCAASGFTFSNAWMHWVRQAPGKGLEWVAQIKDKGNAYAAQYAPSVKGRFTISRDDSKNSIYLQMNSLKTEDTAVYYCHYVHYASASTVLPAFGVDAWGQGTTVTVSS VL: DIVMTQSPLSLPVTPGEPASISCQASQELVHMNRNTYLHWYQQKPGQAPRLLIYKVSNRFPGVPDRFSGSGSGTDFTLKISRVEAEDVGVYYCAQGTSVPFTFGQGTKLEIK" measurement_units=fold measured=0.4
binder="H183/L072 VH V95I (antibody, name in Kabat numbering, V domains shown) VH: QVQLVESGGGLVQPGRSLRLSCAASGFTFSNAWMHWVRQAPGKGLEWVAQIKDKGNAYAAYYAPSVKGRFTISRDDSKNSIYLQMNSLKTEDTAVYYCHYIHYASASTVLPAFGVDAWGQGTTVTVSS VL: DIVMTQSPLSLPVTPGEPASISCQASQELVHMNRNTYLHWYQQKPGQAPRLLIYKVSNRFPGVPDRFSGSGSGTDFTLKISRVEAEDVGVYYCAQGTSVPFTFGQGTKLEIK" measurement_units=fold measured=0.3
binder="H183/L072 VH G26Q (antibody, name in Kabat numbering, V domains shown) VH: QVQLVESGGGLVQPGRSLRLSCAASQFTFSNAWMHWVRQAPGKGLEWVAQIKDKGNAYAAYYAPSVKGRFTISRDDSKNSIYLQMNSLKTEDTAVYYCHYVHYASASTVLPAFGVDAWGQGTTVTVSS VL: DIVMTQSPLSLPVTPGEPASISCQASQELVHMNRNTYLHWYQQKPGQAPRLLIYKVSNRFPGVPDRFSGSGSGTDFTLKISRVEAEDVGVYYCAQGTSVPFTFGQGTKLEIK" measurement_units=fold measured=0.4
binder="H183/L072 VH P100eL (antibody, name in Kabat numbering, V domains shown) VH: QVQLVESGGGLVQPGRSLRLSCAASGFTFSNAWMHWVRQAPGKGLEWVAQIKDKGNAYAAYYAPSVKGRFTISRDDSKNSIYLQMNSLKTEDTAVYYCHYVHYASASTVLLAFGVDAWGQGTTVTVSS VL: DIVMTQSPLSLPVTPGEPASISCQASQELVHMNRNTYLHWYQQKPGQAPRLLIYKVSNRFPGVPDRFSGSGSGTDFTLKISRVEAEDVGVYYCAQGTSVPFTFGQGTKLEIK" measurement_units=fold measured=0
binder="H183/L072 VH S100aM (antibody, name in Kabat numbering, V domains shown) VH: QVQLVESGGGLVQPGRSLRLSCAASGFTFSNAWMHWVRQAPGKGLEWVAQIKDKGNAYAAYYAPSVKGRFTISRDDSKNSIYLQMNSLKTEDTAVYYCHYVHYASAMTVLPAFGVDAWGQGTTVTVSS VL: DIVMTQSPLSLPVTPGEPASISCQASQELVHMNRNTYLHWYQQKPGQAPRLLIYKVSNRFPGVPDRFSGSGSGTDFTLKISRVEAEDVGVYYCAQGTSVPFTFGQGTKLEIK" measurement_units=fold measured=0
binder="H183/L072 VH T28G (antibody, name in Kabat numbering, V domains shown) VH: QVQLVESGGGLVQPGRSLRLSCAASGFGFSNAWMHWVRQAPGKGLEWVAQIKDKGNAYAAYYAPSVKGRFTISRDDSKNSIYLQMNSLKTEDTAVYYCHYVHYASASTVLPAFGVDAWGQGTTVTVSS VL: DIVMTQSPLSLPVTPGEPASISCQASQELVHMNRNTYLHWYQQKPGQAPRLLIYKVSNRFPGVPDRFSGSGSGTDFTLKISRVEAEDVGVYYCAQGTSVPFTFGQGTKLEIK" measurement_units=fold measured=0.3
binder="H183/L072 VH T28I (antibody, name in Kabat numbering, V domains shown) VH: QVQLVESGGGLVQPGRSLRLSCAASGFIFSNAWMHWVRQAPGKGLEWVAQIKDKGNAYAAYYAPSVKGRFTISRDDSKNSIYLQMNSLKTEDTAVYYCHYVHYASASTVLPAFGVDAWGQGTTVTVSS VL: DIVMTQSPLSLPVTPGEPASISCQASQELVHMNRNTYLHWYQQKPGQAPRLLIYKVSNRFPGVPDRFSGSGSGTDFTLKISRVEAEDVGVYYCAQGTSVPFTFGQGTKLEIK" measurement_units=fold measured=0.8
binder="H183/L072 VH Y59W (antibody, name in Kabat numbering, V domains shown) VH: QVQLVESGGGLVQPGRSLRLSCAASGFTFSNAWMHWVRQAPGKGLEWVAQIKDKGNAYAAYWAPSVKGRFTISRDDSKNSIYLQMNSLKTEDTAVYYCHYVHYASASTVLPAFGVDAWGQGTTVTVSS VL: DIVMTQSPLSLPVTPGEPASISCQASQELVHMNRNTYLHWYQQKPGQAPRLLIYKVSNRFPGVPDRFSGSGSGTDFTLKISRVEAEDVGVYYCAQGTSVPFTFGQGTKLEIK" measurement_units=fold measured=1.5
binder="H183/L072 VH S30D (antibody, name in Kabat numbering, V domains shown) VH: QVQLVESGGGLVQPGRSLRLSCAASGFTFDNAWMHWVRQAPGKGLEWVAQIKDKGNAYAAYYAPSVKGRFTISRDDSKNSIYLQMNSLKTEDTAVYYCHYVHYASASTVLPAFGVDAWGQGTTVTVSS VL: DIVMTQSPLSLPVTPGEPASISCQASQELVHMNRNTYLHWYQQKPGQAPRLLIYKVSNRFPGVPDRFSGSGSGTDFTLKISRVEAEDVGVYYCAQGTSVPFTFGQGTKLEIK" measurement_units=fold measured=0.4
binder="H183/L072 VH F29V (antibody, name in Kabat numbering, V domains shown) VH: QVQLVESGGGLVQPGRSLRLSCAASGFTVSNAWMHWVRQAPGKGLEWVAQIKDKGNAYAAYYAPSVKGRFTISRDDSKNSIYLQMNSLKTEDTAVYYCHYVHYASASTVLPAFGVDAWGQGTTVTVSS VL: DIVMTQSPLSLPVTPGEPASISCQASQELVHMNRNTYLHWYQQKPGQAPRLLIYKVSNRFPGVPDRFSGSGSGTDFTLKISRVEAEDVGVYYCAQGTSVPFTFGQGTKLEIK" measurement_units=fold measured=0.1
